Numbers sourced from PubChem BioAssay AID1996.

# CONDITION_DESCRIPTION: buffer; pH 7.4; 200.0 µM
MEASURE: solubility kinetic (µg/mL)
Express it in µg/mL; write the number only.

* Cc1nc(-c2ccccc2Cl)sc1C(=O)/C=C/N(C)C | 10.8
* CN(C)CC/C=C1\c2cc(Cl)ccc2Sc2cc(F)c(F)cc21.Cl | 21.8
* CC(C)Sc1cc(Cl)nc(NC(=O)Nc2ccccc2)n1 | 0.4

Input `CC(=O)N1CCN(CC(=O)Nc2sccc2C#N)CC1` . Output solubility kinetic: 39

* * *

The following compounds are listed with their measured solubility kinetic values.
# CONDITION_DESCRIPTION: buffer; pH 7.4; 200.0 µM

# example entries with known answers
* COc1ccc(C(=O)Nc2ccccc2C(=O)N2CCOCC2)cc1OC | 46.7 µg/mL
* Cc1cccc(C(=O)NCC(=O)N2CCN(c3ccccn3)CC2)c1 | > 50.8 µg/mL

Entry `COc1ccccc1OCC(=O)Nc1ccc2c(c1)OCO2` , solubility kinetic reported as 40.9 µg/mL

Reported solubility kinetic for `CC1CCN(C(=O)c2cc(-c3ccco3)on2)CC1` was 37.7 µg/mL

* * *

# CONDITION_DESCRIPTION: buffer; pH 7.4; 200.0 µM
Below, each entry is listed with its recorded solubility kinetic.
Just the number please, in µg/mL, no unit attached.

// recorded solubility kinetic for `O=C(NCCNc1ccc([N+](=O)[O-])cc1)c1ccccc1F` : 3.8

Memo: `Cc1ccc(SCc2cn3cc(Cl)ccc3n2)cc1` , reported solubility kinetic: 2.9

According to the records, this compound `O=C(CNC(=O)c1ccccc1)OCc1cccc(Br)c1` displays solubility kinetic of 46.4

* * *

# reported solubility kinetic; entries follow
# CONDITION_DESCRIPTION: buffer; pH 7.4; 200.0 µM

Here's what some known entries look like.
• CC(C)(C#N)NC(=O)C(=O)c1c(-c2ccccc2)cc2ccccn12 = > 49.7 µg/mL
• Cc1cc(C)cc(C(=O)N2CCC3(CC2)NCCc2[nH]cnc23)c1 = > 48.7 µg/mL
• Cc1ccccc1OCC(=O)OCC(=O)NCC1CCCCC1 = 7.6 µg/mL
• CC1CN(c2ccc([N+](=O)[O-])cc2Cl)CCN1S(C)(=O)=O (stereo unspecified) = > 50.1 µg/mL

The reported value for `COc1ccc(N(CC(=O)NC2CCCCC2)S(=O)(=O)c2cccs2)cc1` in terms of solubility kinetic is 1.2 µg/mL

Recorded solubility kinetic (molecule `NC(=Nc1ccc(Cl)cc1)c1ccccc1` ): > 34.6 µg/mL

For record `O=C(COC(=O)c1ccc(Cl)c(S(=O)(=O)N2CCCC2)c1)NCc1ccccc1` the listed solubility kinetic is 26.1 µg/mL

Sample CC1CCCCN1S(=O)(=O)Cc1ccccc1Cl (stereo unspecified) ; solubility kinetic observed: > 43.2 µg/mL

Form: molecule = O=C(c1ccc(F)cc1)C(C(=O)N1CCCCC1)n1ccccc1=O (stereo unspecified) ; solubility kinetic = > 51.4 µg/mL

// recorded solubility kinetic for `O=C(Nc1cccc2c1CCCC2)c1ccccc1Br` : < 0.7 µg/mL

Lab note: measured solubility kinetic of `Cc1ccc(S(=O)(=O)N(CC(=O)N2CCOCC2)c2ccc(C(C)C)cc2)cc1` was 4.6 µg/mL

* * *

Overview of reported solubility kinetic across a group of compounds:
# CONDITION_DESCRIPTION: buffer; pH 7.4; 200.0 µM

• CNC(=S)Nc1ccc2nc(C)oc2c1 = > 33.2 µg/mL
• COc1ccccc1CNS(=O)(=O)c1ccc(Cl)s1 = > 47.7 µg/mL
• Clc1ccc2nc(-c3ccc4c(c3)OCO4)cn2c1 = < 0.3 µg/mL

Value of measured solubility kinetic for the entry `COc1ccc(C(=O)OCC(=O)Nc2c(C)cccc2C)cc1` : < 0.7 µg/mL

For this compound ( `c1ccc(-c2ccccc2OCCCCn2ccnc2)cc1` ), measured solubility kinetic is 31.3 µg/mL

Just so you know, measured solubility kinetic for CC(NC(=O)CN1C(=O)NC2(CCCCCCC2)C1=O)c1ccccc1 (configuration not stated) came out at > 53.6 µg/mL

`N#Cc1cnc(NOCc2ccc(Cl)cc2)nc1` yielded solubility kinetic of 7.4 µg/mL

For this compound ( CC(Sc1nncn1C)C(=O)Nc1ccc(N2CCCCC2)cc1 (configuration not stated) ), measured solubility kinetic is > 51.8 µg/mL
